# subjectOfTest: c-Met protein receptors on HUVEC (human, UniProt P08581 25-1390)
# Sequence (P08581 25-1390): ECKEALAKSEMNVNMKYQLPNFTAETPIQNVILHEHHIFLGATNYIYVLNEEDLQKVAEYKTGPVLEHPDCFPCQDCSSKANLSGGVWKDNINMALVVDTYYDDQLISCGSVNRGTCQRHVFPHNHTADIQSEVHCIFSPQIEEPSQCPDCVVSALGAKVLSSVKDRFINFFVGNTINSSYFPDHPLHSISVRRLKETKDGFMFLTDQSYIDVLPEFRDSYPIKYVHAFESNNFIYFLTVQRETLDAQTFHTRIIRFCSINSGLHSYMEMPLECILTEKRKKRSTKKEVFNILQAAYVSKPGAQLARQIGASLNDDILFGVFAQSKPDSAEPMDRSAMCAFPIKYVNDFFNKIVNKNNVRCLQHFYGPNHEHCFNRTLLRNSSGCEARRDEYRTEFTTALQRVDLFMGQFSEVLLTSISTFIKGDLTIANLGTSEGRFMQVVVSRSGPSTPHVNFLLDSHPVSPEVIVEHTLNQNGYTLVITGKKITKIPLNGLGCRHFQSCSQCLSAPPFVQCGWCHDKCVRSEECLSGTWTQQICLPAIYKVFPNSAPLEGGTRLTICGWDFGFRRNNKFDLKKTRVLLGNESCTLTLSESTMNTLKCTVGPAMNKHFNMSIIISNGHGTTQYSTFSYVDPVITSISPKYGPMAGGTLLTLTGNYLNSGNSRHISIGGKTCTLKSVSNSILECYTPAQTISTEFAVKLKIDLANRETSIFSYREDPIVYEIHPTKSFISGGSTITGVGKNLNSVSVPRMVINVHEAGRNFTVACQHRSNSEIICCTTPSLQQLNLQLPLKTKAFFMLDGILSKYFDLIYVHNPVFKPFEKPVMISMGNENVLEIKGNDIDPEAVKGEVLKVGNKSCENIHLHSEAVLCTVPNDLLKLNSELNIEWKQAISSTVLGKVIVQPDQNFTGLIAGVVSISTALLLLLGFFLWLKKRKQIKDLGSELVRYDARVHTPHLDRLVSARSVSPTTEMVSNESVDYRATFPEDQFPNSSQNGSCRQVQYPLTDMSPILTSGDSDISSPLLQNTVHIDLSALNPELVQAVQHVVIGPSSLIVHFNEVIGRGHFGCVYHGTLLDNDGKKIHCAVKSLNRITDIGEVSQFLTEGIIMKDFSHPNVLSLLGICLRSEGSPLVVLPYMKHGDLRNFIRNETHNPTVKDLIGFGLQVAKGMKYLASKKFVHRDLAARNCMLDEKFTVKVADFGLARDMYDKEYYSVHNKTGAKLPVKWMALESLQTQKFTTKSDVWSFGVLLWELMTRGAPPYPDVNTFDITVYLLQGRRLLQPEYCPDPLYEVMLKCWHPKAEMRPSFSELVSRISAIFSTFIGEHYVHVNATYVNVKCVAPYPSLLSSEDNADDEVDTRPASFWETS
# assayNotes: cell-based or functional assay
Documented Index 2 (Relative Migration relative to VH0/Vk0), HUVEC migration assay across a set of binders
Hey, just send me the number, nothing else.

| binder | reportedResult |
| --- | --- |
| VH5/Vk2 (antibody, IgG1, V domains shown, Full IgG1/kappa expressed in HEK 293 EBNA cells) VH: QVQLVQSGAEVKKPGSSVKVSCQGSGYSFPTHWITWVRQAPGQGLEWMGTIDPTDSYNFYGPSFQGRVTITADSSTSTAYMELSSLRSEDTAVYYCARDGNYYDSRGYYYDTFDMWGQGTLVTVSS VL: DIQMTQSPSSLSASVGDRVTITCRASQGISTYLAWYQQKPGKAPKLLIYSASTLESGVPSRFSGSGSGTDFTLTISSLQPEDFATYYCQQADSFPLTFGGGTKVEIK | 1.18 |
| VH6/Vk0 (antibody, IgG1, V domains shown, Full IgG1/kappa expressed in HEK 293 EBNA cells) VH: QVQLVQSGAEVKKPGSSVKVSCKASGYSFPTHWITWVRQAPGQGLEWMGTIDPTDSYNFYGPSFQGRVTITADKSTSTAYMELSSLRSEDTAVYYCARDGNYYDSRGYYYDTFDMWGQGTLVTVSS VL: DIQMTQSPSFLSASVGDRVTITCRASQGISTYLAWYQQKPGTAPKLLIYSASTLESGVPSRFSGSGSGTDFTLTISSLQPEDSATYYCQQADSFPLTFGGGTKVEIK | 1.01 |
| VH3/Vk2 (antibody, IgG1, V domains shown, Full IgG1/kappa expressed in HEK 293 EBNA cells) VH: QVQLVQSGAEVKKPGSSVKVSCQGSGYSFPTHWITWVRQAPGQGLEWMGTIDPTDSYNFYGPSFQGRVTITADSSTSTAYLQWSSLKASDTAMYYCARDGNYYDSRGYYYDTFDMWGQGTLVTVSS VL: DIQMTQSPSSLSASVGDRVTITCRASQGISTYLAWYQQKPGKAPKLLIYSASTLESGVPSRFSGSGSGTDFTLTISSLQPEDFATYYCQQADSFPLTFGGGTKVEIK | 1.09 |
| VH4/Vk5 (antibody, IgG1, V domains shown, Full IgG1/kappa expressed in HEK 293 EBNA cells) VH: QVQLVQSGAEVKKPGSSVKVSCQGSGYSFPTHWITWVRQAPGQGLEWMGTIDPTDSYNFYGPSFQGRVTITADSSTSTAYMELSSLRSEDTAMYYCARDGNYYDSRGYYYDTFDMWGQGTLVTVSS VL: EIVLTQSPGTLSLSPGERATLSCRASQGISTYLAWYQQKPGQAPRLLIYSASTLESGIPDRFSGSGSGTDFTLTISRLEPEDFATYYCQQADSFPLTFGGGTKVEIK | 1.14 |
| VH4/Vk0 (antibody, IgG1, V domains shown, Full IgG1/kappa expressed in HEK 293 EBNA cells) VH: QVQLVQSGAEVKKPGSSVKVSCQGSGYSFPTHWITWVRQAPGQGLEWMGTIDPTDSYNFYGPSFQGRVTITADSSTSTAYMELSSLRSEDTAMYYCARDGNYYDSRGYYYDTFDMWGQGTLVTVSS VL: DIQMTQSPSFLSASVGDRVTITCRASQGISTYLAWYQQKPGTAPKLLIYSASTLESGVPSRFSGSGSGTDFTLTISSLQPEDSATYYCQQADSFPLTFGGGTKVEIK | 0.812 |

Moving on to another binder below.
Please fill in: Index 2 (Relative Migration relative to VH0/Vk0), HUVEC migration assay reported for VH0/Vk0 (antibody, IgG1, V domains shown, Full IgG1/kappa with the variable domains of 1E4; also called 1E4 antibody variant including the constant domain where the residues were substituted) VH: QVQLVQSGAEVKKPGESLRISCQGSGYSFPTHWITWVRQMPGKGLEWMGTIDPTDSYNFYGPSFQGHVTISADSSSSTAYLQWSSLKASDTAMYYCARDGNYYDSRGYYYDTFDMWGQGTLVTVSS VL: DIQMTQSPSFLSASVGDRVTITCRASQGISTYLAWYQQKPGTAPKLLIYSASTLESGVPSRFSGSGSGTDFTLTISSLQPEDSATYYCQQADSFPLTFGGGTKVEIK = 1
